- System: NCI-H1693;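 further: growth inhibition of the human cell line, read out with a cell viability assay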
- measurement_notes: cells
- Assay type: functional, cell-based
- study_conditions: Homo sapiens
- Description: SANGER: Inhibition of human NCI-H1693 cell growth in a cell viability assay.

>  <smiles_repr>
Cc1ccc(C(=O)Nc2ccc(CN3CCN(C)CC3)c(C(F)(F)F)c2)cc1C#Cc1cnc2cccnn12

>  <IC50>
> 0.512 µM

$$$$
>  <smiles_repr>
CC1(C)CCC(c2ccc(Cl)cc2)=C(CN2CCN(c3ccc(C(=O)NS(=O)(=O)c4ccc(N[C@H](CCN5CCOCC5)CSc5ccccc5)c(S(=O)(=O)C(F)(F)F)c4)cc3)CC2)C1

>  <IC50>
> 2 µM

$$$$
>  <smiles_repr>
COc1ccc(-c2cc3nccn3c(Nc3ncccc3C(N)=O)n2)cc1OC

>  <IC50>
> 8 µM

$$$$
>  <smiles_repr>
CCCCCCCCCCCC1=C(O)C(=O)C=C(O)C1=O

>  <IC50>
> 32 µM

$$$$
>  <smiles_repr>
NC(=O)c1ccc(N(C(N)=O)c2c(F)cccc2F)nc1-c1ccc(F)cc1F

>  <IC50>
> 2 µM

$$$$
>  <smiles_repr>
CC1=C(/C=C/C(C)=C/C=C/C(C)=C/C(=O)O)C(C)(C)CCC1

>  <IC50>
> 10 µM

$$$$
>  <smiles_repr>
Cc1ccc(-n2nc(C(C)(C)C)cc2NC(=O)Nc2ccc(OCCN3CCOCC3)c3ccccc23)cc1

>  <IC50>
> 10 µM

$$$$

---

- System: SW756
- measurement_notes: cells
- Type: functional, cell-based
- study_conditions: Homo sapiens
- Description: SANGER: Inhibition of human SW756 cell growth in a cell viability assay.
Listing of entries alongside the reported IC50.
reported_metric: IC50

>  <smiles_repr>
CC1(C)CCC(c2ccc(Cl)cc2)=C(CN2CCN(c3ccc(C(=O)NS(=O)(=O)c4ccc(N[C@H](CCN5CCOCC5)CSc5ccccc5)c(S(=O)(=O)C(F)(F)F)c4)cc3)CC2)C1

>  <target_desc>
SW756

>  <recorded_value>
> 2 µM

$$$$
>  <smiles_repr>
CN(C)CCOc1ccc(-c2nc(-c3ccncc3)c(-c3ccc4c(c3)CC/C4=N\O)[nH]2)cc1

>  <target_desc>
SW756

>  <recorded_value>
> 5 µM

$$$$
>  <smiles_repr>
Cc1ccc(C(=O)Nc2ccc(CN3CCN(C)CC3)c(C(F)(F)F)c2)cc1C#Cc1cnc2cccnn12

>  <target_desc>
SW756

>  <recorded_value>
> 0.512 µM

$$$$
>  <smiles_repr>
CC1=C(/C=C/C(C)=C/C=C/C(C)=C/C(=O)O)C(C)(C)CCC1

>  <target_desc>
SW756

>  <recorded_value>
> 10 µM

$$$$
>  <smiles_repr>
O=C(NCCCNc1nc(Nc2cccc(NC(=O)N3CCCC3)c2)ncc1I)c1cccs1

>  <target_desc>
SW756

>  <recorded_value>
> 5 µM

$$$$

---

Listing of entries alongside the reported IC50.
- System: U-118-MG
- measurement_notes: cells
- Type: functional, cell-based
- study_conditions: Homo sapiens
- Description: SANGER: Inhibition of human U-118-MG cell growth in a cell viability assay.

>  <compound>
O=C(NCCCNc1nc(Nc2cccc(NC(=O)N3CCCC3)c2)ncc1I)c1cccs1 [BX-795]

>  <IC50>
> 5 µM

$$$$
>  <compound>
CC1(C)CCC(c2ccc(Cl)cc2)=C(CN2CCN(c3ccc(C(=O)NS(=O)(=O)c4ccc(N[C@H](CCN5CCOCC5)CSc5ccccc5)c(S(=O)(=O)C(F)(F)F)c4)cc3)CC2)C1 [NAVITOCLAX]

>  <IC50>
> 2 µM

$$$$
>  <compound>
OC[C@H](Cc1ccccc1)Nc1nc(Oc2ccc3c(c2)CCC3)nc2c1ncn2Cc1ccc(-c2ccccc2)cc1

>  <IC50>
> 10.2 µM

$$$$
>  <compound>
COc1ccc(-c2cc3nccn3c(Nc3ncccc3C(N)=O)n2)cc1OC

>  <IC50>
6.78 µM

$$$$
>  <compound>
CN(NC(=O)CC(=O)NN(C)C(=S)c1ccccc1)C(=S)c1ccccc1 [ELESCLOMOL]

>  <IC50>
> 0.2 µM

$$$$
>  <compound>
NC(=O)Nc1cc(-c2cccc(F)c2)sc1C(=O)N[C@H]1CCCNC1 [AZD-7762]

>  <IC50>
> 2 µM

$$$$

---

- Tested on: BE-13
- measurement_notes: cells
- Format: functional, cell-based, Homo sapiens
- study_conditions: Homo sapiens, BE-13
- Description: SANGER: Inhibition of human BE-13 cell growth in a cell viability assay.
reported_metric: IC50

>  <compound>
O=C1NC(=O)c2c1c(-c1ccccc1Cl)cc1[nH]c3ccc(O)cc3c21

>  <target_desc>
BE-13

>  <recorded_value>
> 2000 nM

$$$$
>  <compound>
COc1cc(N2CCC(N3CCN(C)CC3)CC2)ccc1Nc1ncc(Cl)c(Nc2ccccc2S(=O)(=O)C(C)C)n1 [TAE-684]

>  <target_desc>
BE-13

>  <recorded_value>
> 2000 nM

$$$$
>  <compound>
CC1(C)CCC(c2ccc(Cl)cc2)=C(CN2CCN(c3ccc(C(=O)NS(=O)(=O)c4ccc(N[C@H](CCN5CCOCC5)CSc5ccccc5)c(S(=O)(=O)C(F)(F)F)c4)cc3)CC2)C1 [NAVITOCLAX]

>  <target_desc>
BE-13

>  <recorded_value>
365 nM

$$$$
>  <compound>
O=S(=O)(O)c1ccc2cc(/N=N/c3cc(S(=O)(=O)O)c4cccnc4c3O)ccc2c1

>  <target_desc>
BE-13;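 further: growth inhibition of human BE-13 cells, measured with a cell viability assay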

>  <recorded_value>
> 16000 nM

$$$$

---

Listing of entries alongside the reported IC50.
- System: SIG-M5;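 further: cell viability assay read-out, measuring how strongly growth of cultured human SIG-M5 cells is inhibited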
- measurement_notes: cells
- Type: functional, cell-based, Homo sapiens
- study_conditions: Homo sapiens, SIG-M5
- Description: SANGER: Inhibition of human SIG-M5 cell growth in a cell viability assay.
reported_metric: IC50

>  <compound>
CCCCCCCCCCCC1=C(O)C(=O)C=C(O)C1=O [EMBELIN]

>  <reported_metric>
IC50

>  <recorded_value>
1.31 µM

$$$$
>  <compound>
CC(C)C[C@H](NC(=O)[C@H](Cc1ccccc1)NC(=O)c1cnccn1)B(O)O [BORTEZOMIB]

>  <reported_metric>
IC50

>  <recorded_value>
> 0.02 µM

$$$$
>  <compound>
C=CC(=O)N1CCCC(Nc2nc(Nc3ccc(N(C)C(=O)CC)cc3)nc3[nH]cnc23)C1 (stereo unspecified)

>  <reported_metric>
IC50

>  <recorded_value>
> 10.2 µM

$$$$
>  <compound>
OC[C@H](Cc1ccccc1)Nc1nc(Oc2ccc3c(c2)CCC3)nc2c1ncn2Cc1ccc(-c2ccccc2)cc1

>  <reported_metric>
IC50

>  <recorded_value>
0.654 µM

$$$$
>  <compound>
O=S(=O)(O)c1ccc2cc(/N=N/c3cc(S(=O)(=O)O)c4cccnc4c3O)ccc2c1

>  <reported_metric>
IC50

>  <recorded_value>
> 16 µM

$$$$
>  <compound>
COc1ccc(N(C(=O)Oc2c(C)cccc2C)c2ccnc(Nc3ccc(N4CCN(C)CC4)cc3)n2)c(OC)c1

>  <reported_metric>
IC50

>  <recorded_value>
> 5.12 µM

$$$$

---

- Tested on: JIYOYE
- measurement_notes: cells
- Assay type: functional, cell-based, Homo sapiens
- study_conditions: jiyoye
- Description: SANGER: Inhibition of human JiyoyeP-2003 cell growth in a cell viability assay.
pIC50: −log10 of the molar value. Where a SMILES comes first, the peptide text is derived from it. The star is where a group is joined. Cbz = O=C(OCc1ccccc1)*

>  <compound>
CC(C)C[C@@H](C=O)NC(=O)[C@H](CC(C)C)NC(=O)[C@H](CC(C)C)NC(=O)OCc1ccccc1 [MG-132] (Cbz-Leu-Leu-Leu-aldehyde)

>  <target_desc>
JIYOYE

>  <pIC50>
< 6.00

$$$$

---

- Test system: KYSE-180
- measurement_notes: cells
- Assay type: functional, cell-based
- study_conditions: Homo sapiens
- Description: SANGER: Inhibition of human KYSE-180 cell growth in a cell viability assay.

>  <smiles_repr>
OC[C@H](Cc1ccccc1)Nc1nc(Oc2ccc3c(c2)CCC3)nc2c1ncn2Cc1ccc(-c2ccccc2)cc1

>  <result_units>
µM

>  <relation>
>

>  <IC50>
10.2

$$$$
>  <smiles_repr>
CN(C)CCOc1ccc(-c2nc(-c3ccncc3)c(-c3ccc4c(c3)CC/C4=N\O)[nH]2)cc1

>  <result_units>
µM

>  <relation>
>

>  <IC50>
5

$$$$
>  <smiles_repr>
COc1ccc(-c2cc3nccn3c(Nc3ncccc3C(N)=O)n2)cc1OC

>  <result_units>
µM

>  <relation>
=

>  <IC50>
5.62

$$$$
>  <smiles_repr>
CCCCCCCCCCCC1=C(O)C(=O)C=C(O)C1=O

>  <result_units>
µM

>  <relation>
=

>  <IC50>
7.58

$$$$
>  <smiles_repr>
O=C(NCCCNc1nc(Nc2cccc(NC(=O)N3CCCC3)c2)ncc1I)c1cccs1

>  <result_units>
µM

>  <relation>
>

>  <IC50>
5

$$$$
>  <smiles_repr>
CS(=O)(=O)N1CCN(Cc2cc3nc(-c4cccc5[nH]ncc45)nc(N4CCOCC4)c3s2)CC1

>  <result_units>
µM

>  <relation>
>

>  <IC50>
4

$$$$
>  <smiles_repr>
NC1(c2ccc(-c3nc4ccn5c(=O)[nH]nc5c4cc3-c3ccccc3)cc2)CCC1

>  <result_units>
µM

>  <relation>
>

>  <IC50>
4

$$$$
>  <smiles_repr>
Cc1ccc(C(=O)Nc2ccc(CN3CCN(C)CC3)c(C(F)(F)F)c2)cc1C#Cc1cnc2cccnn12

>  <result_units>
µM

>  <relation>
=

>  <IC50>
0.269

$$$$
>  <smiles_repr>
O=S(=O)(O)c1ccc2cc(/N=N/c3cc(S(=O)(=O)O)c4cccnc4c3O)ccc2c1

>  <result_units>
µM

>  <relation>
>

>  <IC50>
16

$$$$
>  <smiles_repr>
C/C(=C\c1csc(C)n1)[C@@H]1C[C@@H]2O[C@]2(C)CCC[C@H](C)[C@H](O)[C@@H](C)C(=O)C(C)(C)[C@@H](O)CC(=O)O1

>  <result_units>
µM

>  <relation>
=

>  <IC50>
0.000601

$$$$
